- Tested on: K. pneumoniae ATCC 10031
- runDescription: MIC against K. pneumoniae ATCC 10031
- Assay type: cell-based
- experimentalContext: Klebsiella pneumoniae, ATCC10031
quantityKind: MIC

compound	result
CSC1O[C@H]([C@H](NC(=O)[C@H]2NC[C@@H]3CNCCO[C@H]32)[C@H](C)Cl)C(O)[C@@H](O)[C@H]1O (stereo partly drawn) [FSA-503001]	> 64 µg/mL
CSC1O[C@H]([C@H](NC(=O)[C@H]2NC[C@@H]3CN(Cc4ccnc(N)c4)CCO[C@H]32)[C@H](C)Cl)C(O)[C@@H](O)[C@H]1O (stereo partly drawn) [FSA-504049]	> 64 µg/mL
CSC1O[C@H]([C@H](NC(=O)[C@H]2NC[C@@H]3CN(CC(=O)O)CCO[C@H]32)[C@H](C)Cl)C(O)[C@@H](O)[C@H]1O (stereo partly drawn) [FSA-504063]	> 64 µg/mL

// data source = patent US20220073554A1
